- Tested on: K-562
- Measurement notes: Anti-proliferative assay (cellular IC50), K-562
- Protocol conditions: Homo sapiens, K562, 72 h, read-out: In Vitro Cellular IC50 K-562

- Molecule: "CC(C)n1cnc2c(N3CCOCC3)nc(-c3cccc(OCCCC(=O)NO)c3)nc21 [compound 83]"
  IC50: "2 to 10 µM"
- Molecule: "CCn1c(CNCCCCCC(=O)NO)nc2c(N3CCOCC3)nc(-c3cnc(N)nc3)nc21 [compound 87]"
  IC50: "> 10 µM"
- Molecule: "Cc1c(CN2CCN(C(=O)[C@H](C)O)CC2)sc2c(N3CCOCC3)nc(-c3cnc(N)nc3)nc12 [GDC-0980, reference compound]"
  IC50: "2 to 10 µM"
- Molecule: "CCn1c(CN(C)Cc2ccc(/C=C/C(=O)NO)cc2)nc2c(N3CCOCC3)nc(-c3cccc(C(N)=O)c3)nc21 [compound 91]"
  IC50: "2 to 10 µM"

Every entry's value here was drawn from patent US9957270B2.
